- TARGET UNDER TEST: Human PXR (Homo sapiens, UniProt O75469)
- Sequence (O75469 107-434): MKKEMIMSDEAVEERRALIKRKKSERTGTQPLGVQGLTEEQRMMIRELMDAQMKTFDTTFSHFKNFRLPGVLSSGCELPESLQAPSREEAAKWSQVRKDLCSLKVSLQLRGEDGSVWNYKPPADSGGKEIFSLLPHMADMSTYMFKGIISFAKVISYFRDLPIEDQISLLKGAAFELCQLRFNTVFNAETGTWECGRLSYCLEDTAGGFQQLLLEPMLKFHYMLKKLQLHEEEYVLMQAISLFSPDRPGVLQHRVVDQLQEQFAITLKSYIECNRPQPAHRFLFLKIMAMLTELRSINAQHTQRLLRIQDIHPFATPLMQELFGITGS
- MEASUREMENT CONDITIONS: human
RESULT TYPE: Human PXR RECh20 (µM)
Numbers only; they are read as µM.

These solved cases illustrate the format of a correct answer.
# COMPOUND, Human PXR RECh20, µM
records = [
    ("C[Si]1(C)O[Si](C)(C)O[Si](C)(C)O[Si](C)(C)O[Si](C)(C)O1 [Decamethylcyclopentasiloxane (D5), Decamethylcyclopentasiloxane]", 35),
    ("C=CC1(C)OC(=O)N(c2cc(Cl)cc(Cl)c2)C1=O (stereo not drawn) [Vinclozolin]", 44),
    ("CCCCCCCCCc1ccc(O)cc1 [4-nonylphenol]", 1.9),
    ("CC1(C)C(C(Cl)Cl)C2(Cl)C(Cl)C(Cl)C1(Cl)C2(Cl)Cl (stereo not drawn) [Toxaphene]", 0.78),
    ("CO[C@H]1/C=C/O[C@@]2(C)Oc3c(C)c(O)c4c(O)c(c(/C=N/N5CCN(C)CC5)c(O)c4c3C2=O)NC(=O)/C(C)=C\\C=C\\[C@H](C)[C@H](O)[C@@H](C)[C@@H](O)[C@@H](C)[C@H](OC(C)=O)[C@@H]1C [Rifampicin, reference compound]", 0.46),
    ("ClC(Cl)=C(c1ccc(Cl)cc1)c1ccc(Cl)cc1 [4,4′-DDE, Dichlorodiphenyldichloroethylene]", 9.1),
    ("Cl[C@H]1[C@H](Cl)[C@H](Cl)[C@@H](Cl)[C@H](Cl)[C@H]1Cl [α-hexachlorocyclohexane (α-HCH), α-hexachlorocyclohexane]", 3.8),
    ("COc1ccc2[nH]c([S+]([O-])Cc3ncc(C)c(OC)c3C)nc2c1 (stereo not drawn) [Omeprazole, reference compound]", 9.1),
]

Okay, now this compound:
input: Look up and report measured Human PXR RECh20 (Human PXR (Homo sapiens, UniProt O75469)) for the following compound: CC(=O)N1CCN(c2ccc(OCC3COC(Cn4ccnc4)(c4ccc(Cl)cc4Cl)O3)cc2)CC1 (stereo not drawn) [Ketoconazole, reference compound]
output: 13
